Data origin: ChEMBL document CHEMBL3616437

- Test system: Cryptococcus neoformans
- PROTOCOL_SUMMARY: Antifungal activity against Cryptococcus neoformans 27JF after 48 to 72 hrs by broth microdilution method
- Format: functional
MFC reference
All answers are understood in µM, so give the number only.

Solved entries (count: 4):
c1ccc(-c2csc(NN=C3CCCC3)n2)cc1 = 7.8
C[C@@H]1[C@H](O)[C@@H](C)/C=C/C=C/C=C/C=C/C=C/C=C/C=C/[C@H](O[C@@H]2O[C@H](C)[C@@H](O)[C@H](N)[C@@H]2O)C[C@@H]2O[C@](O)(C[C@@H](O)C[C@@H](O)[C@H](O)CC[C@@H](O)C[C@@H](O)CC(=O)O[C@H]1C)C[C@H](O)[C@H]2C(=O)O [AMPHOTERICIN B] = 0.45
C(=N\Nc1nc(-c2ccccc2)cs1)/C1CCCCC1 = 7.8
COc1ccc(-c2csc(N/N=C(\C)CCO)n2)cc1 = 7.8

// switching to the query compound
Input COc1ccc(-c2csc(N/N=C/C3CCCCC3)n2)cc1 . Output MFC: 7.8
